biological target: eqBuChE (BuChE from equine serum) (Equus caballus, UniProt P81908); experiment: biochemical; conditions: at 10 μM inhibitor concentration; mean ± SD; read-out: eqBuChE % Inh.
Sequence (P81908 whole entry): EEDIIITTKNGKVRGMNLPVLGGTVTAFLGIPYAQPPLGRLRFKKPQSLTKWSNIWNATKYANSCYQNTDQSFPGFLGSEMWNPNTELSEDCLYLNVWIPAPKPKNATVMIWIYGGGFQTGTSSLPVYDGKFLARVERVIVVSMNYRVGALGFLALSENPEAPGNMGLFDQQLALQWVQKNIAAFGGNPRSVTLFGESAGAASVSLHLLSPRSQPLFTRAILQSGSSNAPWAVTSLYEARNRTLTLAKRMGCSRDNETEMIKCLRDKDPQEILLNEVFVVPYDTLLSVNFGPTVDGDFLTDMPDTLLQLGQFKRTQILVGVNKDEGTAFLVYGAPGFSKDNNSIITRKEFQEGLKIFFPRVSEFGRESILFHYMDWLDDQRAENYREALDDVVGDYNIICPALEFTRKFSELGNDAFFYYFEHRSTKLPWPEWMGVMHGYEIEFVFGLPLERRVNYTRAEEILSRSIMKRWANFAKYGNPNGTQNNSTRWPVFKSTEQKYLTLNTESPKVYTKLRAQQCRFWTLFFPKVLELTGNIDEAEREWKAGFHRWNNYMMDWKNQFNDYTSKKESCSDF
Parameter Measured: inhibition at 10 µM (%)
Response body: numeric value in %, unit text excluded.

// COc1ccccc1CNCC(O)CCCN1C(=O)c2ccccc2C1=O (stereo not drawn) : inhibition at 10 µM value = 26.2

Data point: O=C1c2ccccc2C(=O)N1CC(O)CNCc1cccc(Cl)c1 (stereo not drawn) ; inhibition at 10 µM = 24.1

inhibition at 10 µM measured on O=C1c2ccccc2C(=O)N1CC(O)CNCc1ccc(Cl)cc1Cl (stereo not drawn) = 21.7

In plain terms, O=C1c2ccccc2C(=O)N1CC(O)CNCc1ccccc1F (stereo not drawn) has a documented inhibition at 10 µM of 19.5
